Test system: NTERA-2-cl-D1 (Other Solid Carcinomas)
Experiment: combination Emax (second highest fraction inhibited in the dose matrix, 72 h); higher = more inhibition; extreme values may be limits of the assay
Listing of entries alongside the reported combination Emax.
READOUT LABEL: combination Emax

{"columns": ["MOLECULE", "VALUE OBSERVED"],
 "data": [
  ["COc1cccc(OCCCN)c1-c1cc(Nc2cnc(C#N)cn2)n[nH]1 [Prexasertib] + O=C(c1cc(Cc2n[nH]c(=O)c3ccccc23)ccc1F)N1CCN(C(=O)C2CC2)CC1 [Olaparib] (first compound max 1 µM, 7x7, partner max 10 µM)", 0.742],
  ["C=CCn1c(=O)c2cnc(Nc3ccc(N4CCN(C)CC4)cc3)nc2n1-c1cccc(C(C)(C)O)n1 [AZD1775] + O=C(c1cc(Cc2n[nH]c(=O)c3ccccc23)ccc1F)N1CCN(C(=O)C2CC2)CC1 [Olaparib] (first compound max 1 µM, partner max 10 µM)", 0.914],
  ["O=C(c1cc(Cc2n[nH]c(=O)c3ccccc23)ccc1F)N1CCN(C(=O)C2CC2)CC1 [Olaparib] + CC1(C)CCC(CN2CCN(c3ccc(C(=O)NS(=O)(=O)c4ccc(NCC5CCOCC5)c([N+](=O)[O-])c4)c(Oc4cnc5[nH]ccc5c4)c3)CC2)=C(c2ccc(Cl)cc2)C1 [Venetoclax] (first compound max 10 µM, 7x7, partner max 1 µM)", 0.383],
  ["Cc1c2c(nn1C)CSCc1cc(n(C)n1)CSc1cc(c3ccccc3c1)OCCCc1c(C(=O)O)n(C)c3c-2c(Cl)ccc13 [AZD5991] + CC(=O)O[C@H]1C(=O)[C@@]2(C)[C@H]([C@H](OC(=O)c3ccccc3)[C@]3(O)C[C@H](OC(=O)[C@H](O)[C@@H](NC(=O)c4ccccc4)c4ccccc4)C(C)=C1C3(C)C)[C@]1(OC(C)=O)CO[C@@H]1C[C@@H]2O [Paclitaxel] (first compound max 1 µM, 7x7, partner max 3 µM)", 0.614]
]}

Entry source: the supplement of paper PMC11061612
